METHOD NOTES: Stability in human plasma
Assay type: in vitro ADME
CONDITION PARAMETERS: 2 μM peptidomimetic, pooled human plasma, 37° C.
QUANTITY KIND: half-life (t1/2) when incubated with human plasma

* CCc1cc(OC)ccc1-c1ccc(CC(NC(=O)[C@H](CC(=O)O)NC(=O)[C@H](CO)NC(=O)[C@@H](NC(=O)[C@H](Cc2ccccc2)NC(=O)[C@@H](NC(=O)CNC(=O)C(CCC#N)NC(=O)C(C)(C)NC(=O)[C@@H](N)Cc2c[nH]cn2)[C@@H](C)O)[C@@H](C)O)C(=O)NC(CCCc2cccc(Cl)c2)C(N)=O)cc1 (single isomer, unassigned) [compound 31] | (9) h
* CCc1cc(OC)ccc1-c1ccc(CC(NC(=O)[C@H](CC(=O)O)NC(=O)[C@H](CO)NC(=O)[C@@H](NC(=O)[C@H](Cc2ccccc2)NC(=O)[C@@H](NC(=O)CNC(=O)C(CCC#N)NC(=O)C(C)(C)NC(=O)[C@@H](N)Cc2c[nH]cn2)[C@@H](C)O)[C@@H](C)O)C(=O)NC(CCCc2ccc(F)cc2F)C(N)=O)cc1 (single isomer, unassigned) [compound 78] | (9) h

* * *

System: RIN5F (Rat Insulinoma) cells
METHOD NOTES: In vitro glucose-dependent insulin secretion (RIN5F cell assay screening protocol)
Assay type: cell-based
CONDITION PARAMETERS: 10 nM test compd., 16.7 mM glucose load
Non-standard residues stand in square brackets, D forms with d. Residues, ends and D or L forms follow the SMILES beside them. ξ: configuration not given here. ξBip(2'-Et-4'-OMe) = CCc1cc(OC)ccc1-c1ccc(CC(N)C(=O)O)cc1; ξbishPhe(2-F) = NC(CCCc1ccccc1F)C(=O)O; ξαMePhe(2-F) = CC(N)(Cc1ccccc1F)C(=O)O; aThr = C[C@H](O)[C@H](N)C(=O)O; ξhhPhe = NC(CCCc1ccccc1)C(=O)O; Aib = CC(C)(N)C(=O)O
Measured Insulin secretion of individual entries
QUANTITY KIND: Insulin secretion

• CCc1cc(OC)ccc1-c1ccc(CC(CNC(CCCc2ccccc2F)C(N)=O)NC[C@H](CC(=O)O)NC(=O)[C@H](CO)NC(=O)[C@@H](NC(=O)C(C)(Cc2ccccc2F)NC(=O)[C@@H](NC(=O)CNC(=O)[C@H](CCC(N)=O)NC(=O)C(C)(C)NC(=O)[C@H](Cc2c[nH]cn2)NC(=O)OC)[C@H](C)O)[C@H](C)O)cc1 (single isomer, unassigned) = 36.5 ± 0.05 pg/µg/h
• CCc1cc(OC)ccc1-c1ccc(CC(NC(=O)[C@H](CC(=O)O)NC(=O)[C@H](CO)NC(=O)[C@@H](NC(=O)C(C)(Cc2ccccc2F)NC(=O)[C@@H](NC(=O)CNC(=O)[C@H](CCC(N)=O)NC(=O)C(C)(C)NC(=O)[C@@H](N)Cc2c[nH]cn2)[C@H](C)O)[C@H](C)O)C(=O)NC(CCCc2ccccc2)C(N)=O)cc1 (some centres unmarked) [compound 113] (H-H[Aib]QG[aThr][ξαMePhe(2-F)][aThr]SD[ξBip(2'-Et-4'-OMe)][ξhhPhe]-NH2) = 35.6 ± 0.28 pg/µg/h
• CCc1cc(OC)ccc1-c1ccc(CC(NC(=O)[C@H](CC(=O)O)NC(=O)[C@H](CO)NC(=O)[C@@H](NC(=O)C(C)(Cc2ccccc2F)NC(=O)[C@@H](NC(=O)CNC(=O)[C@H](CCC(N)=O)NC(=O)C(C)(C)NC(=O)[C@@H](N)Cc2c[nH]cn2)[C@H](C)O)[C@@H](C)O)C(=O)NC(CCCc2ccccc2F)C(N)=O)cc1 (some centres unmarked) [compound 111] (H-H[Aib]QG[aThr][ξαMePhe(2-F)]TSD[ξBip(2'-Et-4'-OMe)][ξbishPhe(2-F)]-NH2) = 36.1 ± 0.31 pg/µg/h
• CCc1cc(OC)ccc1-c1ccc(CC(NC(=O)[C@H](CC(=O)O)NC(=O)[C@H](CO)NC(=O)[C@@H](NC(=O)C(C)(Cc2ccccc2F)NC(=O)[C@@H](NC(=O)CNC(=O)C(CCC#N)NC(=O)C(C)(C)NC(=O)[C@@H](N)Cc2c[nH]cn2)[C@H](C)O)[C@H](C)O)C(=O)NC(CCCc2ccccc2F)C(N)=O)cc1 (single isomer, unassigned) = 36.6 ± 0.05 pg/µg/h
• CCc1cc(OC)ccc1-c1ccc(CC(NC(=O)[C@H](CC(=O)O)NC(=O)[C@H](CO)NC(=O)[C@@H](NC(=O)[C@H](Cc2ccccc2)NC(=O)[C@@H](NC(=O)CNC(=O)C(CCC#N)NC(=O)C(C)(C)NC(=O)[C@@H](N)Cc2c[nH]cn2)[C@@H](C)O)[C@@H](C)O)C(=O)NC(CCCc2cccc(Cl)c2)C(N)=O)cc1 (single isomer, unassigned) = 36.6 ± 0.31 pg/µg/h

* * *

METHOD NOTES: Stability in simulated intestinal fluid
Assay type: in vitro ADME
CONDITION PARAMETERS: 2 μM peptidomimetic, simulated intestinal fluid pH 7.5, 37° C., 24 h
Non-standard residues stand in square brackets, D forms with d. Residues, ends and D or L forms follow the SMILES beside them. ξ: configuration not given here. ξBip(2'-Et-4'-OMe) = CCc1cc(OC)ccc1-c1ccc(CC(N)C(=O)O)cc1; ξNva(5-(3-Cl-Ph)) = NC(CCCc1cccc(Cl)c1)C(=O)O
Measured % degradation of peptidomimetics in 24 h when incubated with simulated intestinal fluid of individual entries
QUANTITY KIND: % degradation of peptidomimetics in 24 h when incubated with simulated intestinal fluid (%)

• CCc1cc(OC)ccc1-c1ccc(CC(NC(=O)[C@H](CC(=O)O)NC(=O)[C@H](CO)NC(=O)[C@@H](NC(=O)C(C)(Cc2ccccc2F)NC(=O)[C@@H](NC(=O)CNC(=O)C(CCC#N)NC(=O)C(C)(C)NC(=O)[C@@H](N)Cc2c[nH]cn2)[C@H](C)O)[C@H](C)O)C(=O)N(C)C(CCCc2ccccc2)C(N)=O)cc1 (single isomer, unassigned) = 55
• CCc1cc(OC)ccc1-c1ccc(CC(CNC(CCCc2ccccc2F)C(N)=O)NC[C@H](CC(=O)O)NC(=O)[C@H](CO)NC(=O)[C@@H](NC(=O)C(C)(Cc2ccccc2F)NC(=O)[C@@H](NC(=O)CNC(=O)[C@H](CCC(N)=O)NC(=O)C(C)(C)NC(=O)[C@H](Cc2c[nH]cn2)NC(=O)OC)[C@H](C)O)[C@H](C)O)cc1 (single isomer, unassigned) = 00
• CCc1cc(OC)ccc1-c1ccc(CC(CNC(CCCc2ccccc2)C(N)=O)NC(=O)[C@H](CC(=O)O)NC(=O)[C@H](CO)NC(=O)[C@@H](NC(=O)C(C)(Cc2ccccc2F)NC(=O)[C@@H](NC(=O)CNC(=O)C(CCC#N)NC(=O)C(C)(C)NC(=O)[C@@H](N)Cc2c[nH]cn2)[C@H](C)O)[C@H](C)O)cc1 (single isomer, unassigned) = 00
• CCc1cc(OC)ccc1-c1ccc(CC(NC(=O)[C@H](CC(=O)O)NC(=O)[C@H](CO)NC(=O)[C@@H](NC(=O)[C@H](Cc2ccccc2)NC(=O)[C@@H](NC(=O)CNC(=O)[C@H](CCC(N)=O)NC(=O)[C@H](CO)NC(=O)[C@@H](N)Cc2c[nH]cn2)[C@@H](C)O)[C@@H](C)O)C(=O)NC(CCCc2cccc(Cl)c2)C(N)=O)cc1 (stereo partly drawn) [compound 7] (H-HSQGTFTSD[ξBip(2'-Et-4'-OMe)][ξNva(5-(3-Cl-Ph))]-NH2) = 43
• CCc1cc(OC)ccc1-c1ccc(CC(NC(=O)[C@H](CC(=O)O)NC(=O)[C@H](CO)NC(=O)[C@@H](NC(=O)C(C)(Cc2ccccc2F)NC(=O)[C@@H](NC(=O)CNC(=O)C(CCC#N)NC(=O)C(C)(C)NC(=O)[C@@H](N)Cc2c[nH]cn2)[C@@H](C)O)[C@H](C)O)C(=O)NC(CCCc2ccccc2F)C(N)=O)cc1 (single isomer, unassigned) = 00
• CCc1cc(OC)ccc1-c1ccc(CC(NC(=O)[C@H](CC(=O)O)NC(=O)[C@H](CO)NC(=O)[C@@H](NC(=O)[C@H](Cc2ccccc2)NC(=O)[C@@H](NC(=O)CNC(=O)C(CCC#N)NC(=O)C(C)(C)NC(=O)[C@@H](N)Cc2c[nH]cn2)[C@@H](C)O)[C@@H](C)O)C(=O)NC(CCCc2ccccc2C(F)(F)F)C(N)=O)cc1 (single isomer, unassigned) = 100

* * *

Tested on: C57BL/6J mice (mild hyperglycemic)
METHOD NOTES: In vivo glucose reduction, acute single dose 120-min time-course, i.p. route
Set-up: species or system mouse; unit not given here
CONDITION PARAMETERS: male C57BL/6J mice, 30 nM/kg i.p., 60 min
Non-standard residues stand in square brackets, D forms with d. Residues, ends and D or L forms follow the SMILES beside them. ξ: configuration not given here. ξBip(2'-Et-4'-OMe) = CCc1cc(OC)ccc1-c1ccc(CC(N)C(=O)O)cc1; ξNva(5-(3,5-Me2-Ph)) = Cc1cc(C)cc(CCCC(N)C(=O)O)c1; ξNva(5-(3-Cl-Ph)) = NC(CCCc1cccc(Cl)c1)C(=O)O; Aib = CC(C)(N)C(=O)O
Measured blood glucose levels of individual entries
QUANTITY KIND: blood glucose levels

• CCc1cc(OC)ccc1-c1ccc(CC(NC(=O)[C@H](CC(=O)O)NC(=O)[C@H](CO)NC(=O)[C@@H](NC(=O)C(C)(Cc2ccccc2F)NC(=O)[C@@H](NC(=O)CNC(=O)C(CCC#N)NC(=O)C(C)(C)NC(=O)[C@@H](N)Cc2c[nH]cn2)[C@@H](C)O)[C@H](C)O)C(=O)NC(CCCc2ccccc2F)C(N)=O)cc1 (single isomer, unassigned) = 116
• CCc1cc(OC)ccc1-c1ccc(CC(NC(=O)[C@H](CC(=O)O)NC(=O)[C@H](CO)NC(=O)[C@@H](NC(=O)[C@H](Cc2ccccc2)NC(=O)[C@@H](NC(=O)CNC(=O)C(CCC#N)NC(=O)C(C)(C)NC(=O)[C@@H](N)Cc2c[nH]cn2)[C@@H](C)O)[C@@H](C)O)C(=O)NC(CCCc2ccccc2)C(N)=O)cc1 (single isomer, unassigned) = 116
• CCc1cc(OC)ccc1-c1ccc(CC(NC(=O)[C@H](CC(=O)O)NC(=O)[C@H](CO)NC(=O)[C@@H](NC(=O)[C@H](Cc2ccccc2)NC(=O)[C@@H](NC(=O)CNC(=O)[C@H](CCC(N)=O)NC(=O)[C@H](C)NC(=O)[C@@H](N)Cc2c[nH]cn2)[C@@H](C)O)[C@@H](C)O)C(=O)NC(CCCc2cccc(Cl)c2)C(N)=O)cc1 (stereo partly drawn) [Seq. ID. 15] (H-HAQGTFTSD[ξBip(2'-Et-4'-OMe)][ξNva(5-(3-Cl-Ph))]-NH2) = 117
• CCc1cc(OC)ccc1-c1ccc(CC(NC(=O)[C@H](CC(=O)O)NC(=O)[C@H](CO)NC(=O)[C@@H](NC(=O)[C@H](Cc2ccccc2)NC(=O)[C@@H](NC(=O)CNC(=O)C(CCC#N)NC(=O)C(C)(C)NC(=O)[C@@H](N)Cc2c[nH]cn2)[C@@H](C)O)[C@@H](C)O)C(=O)NC(CCCc2cc(C)cc(C)c2)C(N)=O)cc1 (single isomer, unassigned) = 116
• CCc1cc(OC)ccc1-c1ccc(CC(C(=O)N(C)C(CCCc2ccccc2)C(N)=O)N(C)C(=O)[C@H](CC(=O)O)NC(=O)[C@H](CO)NC(=O)[C@@H](NC(=O)C(C)(Cc2ccccc2F)NC(=O)[C@@H](NC(=O)CNC(=O)C(CCC#N)NC(=O)C(C)(C)NC(=O)[C@@H](N)Cc2c[nH]cn2)[C@H](C)O)[C@H](C)O)cc1 (single isomer, unassigned) = 116
• CCc1cc(OC)ccc1-c1ccc(CC(NC(=O)[C@H](CC(=O)O)NC(=O)[C@H](CO)NC(=O)[C@@H](NC(=O)[C@H](Cc2ccccc2)NC(=O)[C@@H](NC(=O)CNC(=O)[C@H](CCC(N)=O)NC(=O)C(C)(C)NC(=O)[C@@H](N)Cc2c[nH]cn2)[C@@H](C)O)[C@@H](C)O)C(=O)NC(CCCc2cc(C)cc(C)c2)C(N)=O)cc1 (stereo partly drawn) [Seq. ID. 18] (H-H[Aib]QGTFTSD[ξBip(2'-Et-4'-OMe)][ξNva(5-(3,5-Me2-Ph))]-NH2) = 116
